- Test system: EGFR Del19/T790M/C797S (H1975-clone #28)
- assay-explanation: EGFR degradation HTRF assay, H1975-clone #28 DTC cells
- Type: cell-based
- measurement-context: H1975 # 28 DTC cells; maximum percentage of inhibition (degradation)
Documented Dmax (%) H1975 # 28 DTC across a set of compounds
endpoint-label: Dmax (%) H1975 # 28 DTC

INSERT INTO results (compound, test_result) VALUES
  ('CCOc1cc(N2CCC(N3CCN(CCc4cccc5c4oc(=O)n5C4CCC(=O)NC4=O)CC3)CC2)c(CC)cc1Nc1ncc(Br)c(Nc2cc(F)c3nc(CC)ccc3c2P(C)(C)=O)n1 (centres unmarked)', 70.43),
  ('CCc1cc(Nc2ncc(Br)c(Nc3ccc4nc(C)ccc4c3P(C)(C)=O)n2)c(OC)cc1N1CCC(N2CCN(CCc3cc(F)c(C4CCC(=O)NC4=O)c(F)c3)[C@@H](C)C2)CC1 (some centres unmarked)', 66.27),
  ('CCOc1cc(N2CCC(N3CCN(CCc4cccc5c4oc(=O)n5C4CCC(=O)NC4=O)CC3)CC2)c(CC)cc1Nc1ncc(Br)c(Nc2ccc3nc(CC)ncc3c2P(C)(C)=O)n1 (centres unmarked)', 81.88),
  ('CCOc1cc(N2CCC(N3CCN(CCc4cc(F)cc5c4oc(=O)n5C4CCC(=O)NC4=O)CC3)CC2)c(CC)cc1Nc1ncc(Br)c(Nc2ccc3nc(CC)ccc3c2P(C)(C)=O)n1 (centres unmarked)', 80.01),
  ('CCOc1cc(N2CCC(N3CCN(CCc4c(F)ccc5c4n(CC)c(=O)n5C4CCC(=O)NC4=O)CC3)CC2)c(CC)cc1Nc1ncc(Br)c(Nc2ccc3c(=O)n(CC)ncc3c2P(C)(C)=O)n1 (centres unmarked) [Example 559]', 80.93);
